system: Escherichia coli TOP10; experiment: shrunken log2 fold change of peptide-encoding DNA abundance (4.5 h post-induction vs induction); higher = less antimicrobial activity (less host growth inhibition); conditions: time post-induction: 4.5 h; library: site-saturation at positions 5, 18, 19, 20;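 further: peptides expressed intracellularly from a pBAD plasmid library in pooled LB shake-flask culture, induced with 0.3% L-arabinose, DNA abundance read by NGS, three biological replicates, DESeq2 with apeglm shrinkage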
Classification field: enter YES for shrunken log2 fold change values not below -0.04, NO for values below it.

> print(dat)
                biosequence          assayed.system  label.value
 1  RRIRNRPPRLPRPRPRPFKFPRP  Escherichia coli TOP10           NO
 2  RRIRNRPPRLPRPRPRPEDCPRP  Escherichia coli TOP10          YES
 3  RRIRDRPPRLPRPRPRPCKMPRP  Escherichia coli TOP10           NO
 4  RRIRTRPPRLPRPRPRPRLEPRP  Escherichia coli TOP10          YES
 5  RRIRPRPPRLPRPRPRPPWKPRP  Escherichia coli TOP10          YES
 6  RRIRSRPPRLPRPRPRPTIPPRP  Escherichia coli TOP10           NO
 7  RRIRWRPPRLPRPRPRPSGTPRP  Escherichia coli TOP10          YES
 8  RRIRVRPPRLPRPRPRPAQYPRP  Escherichia coli TOP10           NO
 9  RRIRFRPPRLPRPRPRPERYPRP  Escherichia coli TOP10          YES
10  RRIRSRPPRLPRPRPRPAQHPRP  Escherichia coli TOP10          YES
11  RRIRIRPPRLPRPRPRPIAYPRP  Escherichia coli TOP10           NO
12  RRIRLRPPRLPRPRPRPVRKPRP  Escherichia coli TOP10           NO
13  RRIRVRPPRLPRPRPRPWFNPRP  Escherichia coli TOP10           NO
14  RRIRCRPPRLPRPRPRPRGLPRP  Escherichia coli TOP10          YES
15  RRIRIRPPRLPRPRPRPSIMPRP  Escherichia coli TOP10           NO
16  RRIRGRPPRLPRPRPRPENCPRP  Escherichia coli TOP10          YES
17  RRIRYRPPRLPRPRPRPQNGPRP  Escherichia coli TOP10           NO
18  RRIRDRPPRLPRPRPRPQFAPRP  Escherichia coli TOP10          YES
19  RRIRTRPPRLPRPRPRPDLIPRP  Escherichia coli TOP10          YES
20  RRIRSRPPRLPRPRPRPMTFPRP  Escherichia coli TOP10           NO
21  RRIRKRPPRLPRPRPRPNYYPRP  Escherichia coli TOP10           NO
22  RRIRNRPPRLPRPRPRPSAAPRP  Escherichia coli TOP10          YES
23  RRIRPRPPRLPRPRPRPHCIPRP  Escherichia coli TOP10           NO
24  RRIRSRPPRLPRPRPRPMYWPRP  Escherichia coli TOP10           NO
25  RRIRSRPPRLPRPRPRPDCTPRP  Escherichia coli TOP10          YES
26  RRIRGRPPRLPRPRPRPSCDPRP  Escherichia coli TOP10          YES
27  RRIRPRPPRLPRPRPRPPSHPRP  Escherichia coli TOP10          YES
28  RRIRYRPPRLPRPRPRPQYDPRP  Escherichia coli TOP10          YES
29  RRIRKRPPRLPRPRPRPHPYPRP  Escherichia coli TOP10          YES
30  RRIRIRPPRLPRPRPRPWWSPRP  Escherichia coli TOP10           NO
31  RRIRHRPPRLPRPRPRPCHRPRP  Escherichia coli TOP10           NO
32  RRIRSRPPRLPRPRPRPMIFPRP  Escherichia coli TOP10           NO
